Measured target: T1, human PACAP38 (human, not fully specified; C-terminal lysine is amidated; N-terminal or C-terminal biotin in the HTRF and PC-12 cell binding assays)
T1 peptide: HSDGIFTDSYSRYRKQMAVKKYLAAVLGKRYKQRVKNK
Assay text: cell-based or functional assay
Lab note - cut at 1 nM for IC50, 5 nM PACAP38-induced human VPAC1-R mediated cAMP increase: label 1 if strictly below, label 0 if not.

INPUT: Say whether its IC50, 5 nM PACAP38-induced human VPAC1-R mediated cAMP increase is strictly beneath 1 nM. Entry: anti-PACAP antibody Ab5 (antibody, human IgG1, kappa, N297A, V domains shown, full-length rabbit/human chimeric antibody) VH: QSVEESGGRLVTPGTPLTLTCTVSGFSLSSYAMIWVRQAPGKGLEWIGIIYDNGDTYYASWAKGRFTISKTSTTVYLKIASPTTEDTATYFCAREPGSTTQNDLWGQGTLVTVSS VL: DVVMTQTPASVSEPVGGTVTIKCQASENIYNSLLWYQQKPGQPPKLLIYRASTLASGVSSRFKGSGSGTEFTLTISDLECADAATYYCQNYYNIWTNGAAFGGGTEVVVKR
OUTPUT: label 1

INPUT: Could you please tell me whether IC50, 5 nM PACAP38-induced human VPAC1-R mediated cAMP increase recorded for anti-PACAP antibody Ab23 (antibody, human IgG1, kappa, N297A, V domains shown, full-length rabbit/human chimeric antibody; PACAP38 specific) VH: QSVEESGGRLVTPGTPLTLTCTVSGFSLNNYAMSWVRQAPGKGLEWIGIMGVNDITYYASWAKGRFTISKTSTTVDLKMTSLTTEDTATYFCTREIRDDGDSSDKLWGPGTLVTVSS VL: AIKMTQTPSSVSAAVGGTVTINCQASEDIYTNLAWYQQKPGQPPNLLIYDASDLASGVPSRFSGSGDGTQFTLTISAVQCEDAATYYCQGVAWSSNTGYGSAFGGGTEVVVKR is less than 1 nM?
OUTPUT: label 0

INPUT: is_below(IC50, 5 nM PACAP38-induced human VPAC1-R mediated cAMP increase, 1 nM) for anti-PACAP antibody Ab4.H (antibody, human IgG1, kappa, N297A, V domains shown, humanized form of Ab4, full length) VH: EVQLVESGGGLVQPGGSLRLSCAASGFSLSSYDMSWVRQAPGKGLEWIGIINTNDDTWYASWVKGRFTISRDNSKNTLYLQMNSLRAEDTAVYYCARISDAYVFDYAYYFTLWGQGTLVTVSS VL: DIQMTQSPSTLSASVGDRVTITCLASQNIYNSLAWYQQKPGKAPKLLIYRASTLASGVPSRFSGSGSGTEFTLTISSLQPDDFATYYCQQGAGADNIGNPFGGGTKVEIKR ?
OUTPUT: label 0

INPUT: Is IC50, 5 nM PACAP38-induced human VPAC1-R mediated cAMP increase strictly under 1 nM for the entry anti-PACAP antibody Ab22 (antibody, human IgG1, kappa, N297A, V domains shown, full-length rabbit/human chimeric antibody; PACAP38 specific) VH: QEQLVESGGGLVQPEGSLTLTCTASGFDFSSNAMCWVRQAPGKGLEWIGSIYNADGKNYYAIWAKGRFTISRTSSTTVTLQMTSLTAADTATYFCARDFDLWGQGTLVTVSS VL: AAVLTQTPSPVSAAVGGTVTINCQSSQSVYDNDWLAWFQQKPGQPPKLLIYLTSTLASGVPSRFSGSGSGTQFTLTISGVQCDDAATYYCLGGYDEDGDTHVFGGGTEVVVKR ?
OUTPUT: label 0

INPUT: Given anti-PACAP antibody Ab11 (antibody, human IgG1, kappa, N297A, V domains shown, full-length rabbit/human chimeric antibody) VH: QSVEESGGRLVTPGTPLTLTCTASGFSLSRYAMGWVRQAPGKGLEWIGDISTYGTTDYASWVNGRFTISRTSTTVTLKMTSLTTEDTATYFCARDYWLSLWGQGTLVTVSS VL: AAVLTQTPSPVSAAVGGTVTIKCQSSQSVYDNNALAWYQQKPGQPPKLLIYAASNLASGVPDRFSGSGSGTQFTLTISGVQCDDAATYYCLGGYDDAADNAFGGGTEVVVKR , is recorded IC50, 5 nM PACAP38-induced human VPAC1-R mediated cAMP increase strictly lower than 1 nM?
OUTPUT: label 1

INPUT: Item anti-PACAP antibody Ab19 (antibody, human IgG1, kappa, N297A, V domains shown, full-length rabbit/human chimeric antibody) VH: QSVEASGGRLVTPGTPLTLTCTVSGFSLSSATMNWVRQAPGKGLEWIGLIGGNDERYYASWAKGRFTISKTSSTTVDLKMTSPTTEDTATYFCARGGGEFFIWGPGTLVTVSS VL: AQVLTQTPSSVSAAVGGTVTINCQSSESVYTNDRLSWYQQKPGQPPKLLIYEASKLASGVPPRFSGSGSGTQFTLTISDLECDDAATYYCAGAYSTSIHGFGGGTEVVVKR : IC50, 5 nM PACAP38-induced human VPAC1-R mediated cAMP increase beneath 1 nM, strictly?
OUTPUT: label 1

INPUT: Find out if reported IC50, 5 nM PACAP38-induced human VPAC1-R mediated cAMP increase for anti-PACAP antibody Ab3.H (antibody, human IgG1, kappa, N297A, V domains shown, humanized form of Ab3, full length) VH: EVQLVESGGGLVQPGGSLRLSCAASGFSFSSSDYMCWVRQAPGKGLEWIGCIDAGSSGDTYFASSAKGRFTISRDNSKNTVYLQMNSLRAEDTAVYFCARHLYGSITFAFGLWGQGTLVTVSS VL: AAQMTQSPSTLSASVGDRVTITCQASQSIGSDLAWYQQKPGKAPKLLIYDASTLASGVPSRFSGSGSGTEFTLTISSLQPDDFATYYCQGTYYSSGWYTAFGGGTKVEIKR is less than 1 nM
OUTPUT: label 0

INPUT: In the record for anti-PACAP antibody Ab18 (antibody, human IgG1, kappa, N297A, V domains shown, full-length rabbit/human chimeric antibody) VH: QSVEESGGRLVTPGTPLTLTCTVSGFSLSSAALSWVRQAPGKGLEWIGIIDKGVMSYYASWAKGRFTISKTSSTTVDLKVTSPTTEDTATYFCARGGGEFFIWGQGTLVTVSS VL: AQVLTQTPSSVSAAVGGTVTINCQSSKSVYNNNWLSWYQQKPGQPPKFLIYQASNLASGVPSRFKGSGSGTQFTLTISDLECDDAATYYCAGGYSGNIVGFGGGTEVVVKR , is IC50, 5 nM PACAP38-induced human VPAC1-R mediated cAMP increase less than 1 nM?
OUTPUT: label 1

INPUT: Identify whether the binder anti-PACAP antibody Ab12.H (antibody, human IgG1, kappa, N297A, V domains shown, humanized form of Ab12, full length) VH: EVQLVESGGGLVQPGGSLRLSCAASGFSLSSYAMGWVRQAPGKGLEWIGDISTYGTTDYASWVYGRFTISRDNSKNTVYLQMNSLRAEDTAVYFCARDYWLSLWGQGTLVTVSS VL: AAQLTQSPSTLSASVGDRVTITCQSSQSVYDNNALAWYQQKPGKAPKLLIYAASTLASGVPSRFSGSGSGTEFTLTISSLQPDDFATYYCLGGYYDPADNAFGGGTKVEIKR records IC50, 5 nM PACAP38-induced human VPAC1-R mediated cAMP increase below 1 nM.
OUTPUT: label 0

INPUT: Bench note: check whether anti-PACAP antibody Ab4 (antibody, human IgG1, kappa, N297A, V domains shown, full-length rabbit/human chimeric antibody) VH: QSVEESGGRLVTPGTPLTLTCTVSGFSLSSYDMSWVRQAPGKGLEYIGIINTNDDTWYASWVKGRFTISKTSSTTVDLKMTSLTTEDTATYFCARISDAYVFDYAYYFTLWGQGTLVTVSS VL: ALVMTQTPSSVSAAVGGTVTINCLASQNIYNSLAWYQQKPGQPPKLLIYRASTLASGVSSRFKGSGSGTQFTLTISGVECADAATYYCQQGAGADNIGNPFGGGTEVVVKR shows IC50, 5 nM PACAP38-induced human VPAC1-R mediated cAMP increase below 1 nM
OUTPUT: label 1

Source: patent US20190233498A1
